Please go through the items and note down their growth.
# Test system: LOX IMVI melanoma
# test_description: NCI-60 one-dose screen, 48 h (100 = growth as untreated, 0 = no growth, -100 = all killed)
# measurement_conditions: 10 µM unless noted
Compounds without any hit were thinned out: in the full panel of roughly 83,000, 20% have a hit.
# number only, unit % dropped from output

Exercise: Bench note: what growth did CCc1ccc(NC(=O)N[C@@H](Cc2cccc(F)c2)C(=O)N[C@@H]2C(=O)N3CCC[C@H]3C(=O)N3CCCC[C@H]3C(=O)N[C@@H](C)C(=O)N3C[C@H](C)C[C@H]3C(=O)O[C@H]2C)c(F)c1 show?
Key: 14.1

Exercise: // same read-out, input: CCN(CC)c1ccc2cc(C(=O)NCCOCCOCCOCCn3cc(CCC(=O)Nc4ccc(C(=O)c5ccc(NC(=O)OC(C)(C)C)cc5)cc4)nn3)c(=O)oc2c1
Key: 26.7

Exercise: Next entry: CS(=O)c1nccc(-c2c(-c3ccc(F)c(OCCc4ccccc4)c3)nc3sccn23)n1 (stereo not given)
Key: 72.1

Exercise: Would you kindly repeat that for COc1cc2c3c(n(CCCNCC4CC4)c(=O)c2cc1OC)-c1cc2c(cc1C3=O)OCO2 ?
Key: -77.7

Exercise: // repeat for CS(=O)c1nccc(-c2c(-c3ccc(F)c(OCCc4ccc(F)cc4)c3)nc3sccn23)n1 (stereo not given) and report
Key: 19.9

Exercise: Next: COc1ccc(Oc2ccc(C3CC(c4cc(OC)c(OC)c(OC)c4)=NN3C(C)=O)cc2)cc1 (stereo not given)
Key: 35.8

Exercise: Note, next up: C=CCn1c(SCC(=O)Nc2cccc(C(=O)/C=C/c3ccc(Br)cc3)c2)nc2ccccc2c1=O
Key: 74.8

Exercise: What do you get for CC1(COc2ccc3ncc(C#Cc4cncc(C(=O)Nc5cc(C(C)(C)C)on5)c4)n3n2)COC1 ?
Key: 11

Exercise: Query C/C(=C(/c1ccc(O)cc1)c1ccc(OCCN2CCCCCC2)cc1)c1ccccc1 next
Key: 5.39

Exercise: # iterate: CCOC(=O)/C(F)=C/C1CC1C1CCCCC1 (stereo not given)
Key: 98

Exercise: Item: CCCC(=O)NC(c1cccnc1)c1cc(C(C)=O)c2cccnc2c1O (stereo not given)
Key: 27

Exercise: What do you get for COc1ccc(/C=N/Nc2nc(Nc3ccccc3)nc(Nc3ccc(S(N)(=O)=O)cc3)n2)cc1 ?
Key: 52.5

Exercise: Then this compound: CCN1C(=O)N(CC)C2SC(N/N=C/C=C/c3ccccc3OC)=NC21 (stereo not given)
Key: 5.74

Exercise: CC(C)=CCc1c(O)c(CC=C(C)C)c2c(c1O)C(=O)C1=C[C@@H]3C[C@H]4C(C)(C)O[C@@](C/C=C(\C)C(=O)O)(C3=O)[C@@]14O2 ?
Key: -97

Exercise: Also O=C(COc1ccc(C2SCC(=O)N2c2ccccc2)cc1)c1ccccc1 (stereo not given) ?
Key: 93.3

Exercise: What do we get for Nc1nc(-c2cccc([N+](=O)[O-])c2)c(N=Nc2ccccc2Cl)s1 ?
Key: 25.3

Exercise: What about O=C(Nc1cc(Cl)cc(Cl)c1)Nc1ccc2oc(=O)ccc2c1 ?
Key: 14.8

Exercise: // next record CCNCc1c(-c2cccc(OC(F)(F)F)c2)[nH]c2ccc(N3CCCC3)cc2c1=O
Key: 21.9

Exercise: Ok, now C#CCOc1ccc(C(Nc2cc(Cl)ccc2Cl)c2nnnn2C2CCCCC2)cc1 (stereo not given)
Key: 97.7

Exercise: # iterate: CCNC(=NCCCN(C)C)N/C(N)=N/c1nc2ccccc2s1
Key: 73.5

Exercise: Now the compound Cn1c2ccc(Br)cc2c2c3c(c4c5cc(F)ccc5oc4c21)C(=O)N(O)C3=O
Key: 61.9

Exercise: Now give it for C=C(C)[C@@H]1CC[C@]2(C(=O)ON)CC[C@]3(C)[C@H](CC[C@@H]4[C@@]5(C)C/C(=C/c6ccc(Br)cc6)C(=O)C(C)(C)[C@@H]5CC[C@]43C)[C@@H]12 too.
Key: 69.7

Exercise: And then O=C(COc1cccc2cccnc12)Nc1ccc(C(=O)/C=C/c2ccc(Cl)cc2)cc1 , what is it?
Key: 47.5

Exercise: Thanks! And NNC(=O)c1sc2nc(-c3cnccn3)cc(-c3cccs3)c2c1N ?
Key: 83.2

Exercise: Follow-up entry: O=C(CN1CCN(c2cc(=O)n(-c3ccccc3)c3ccccc23)CC1)Nc1ccc([N+](=O)[O-])cc1
Key: 89.3

Exercise: What do you get for O=c1oc2ccc(-c3ccc(F)cc3F)cc2c(=O)n1-c1ccc(F)c(F)c1 ?
Key: 17.8

Exercise: Consider next the compound CCNC(=O)Oc1ccc(/C(=C(/C)c2ccc(Cl)cc2)c2ccc(OCCN3CCCC3)cc2)cc1 in the same way.
Key: 49.2

Exercise: Could you do the same for O=C(NNc1nc2cc(F)cc(F)c2n2cccc12)c1ncccn1 , please?
Key: 5.13

Exercise: # iterate: COc1cc(/C=N/Nc2ccnc3cc(Cl)ccc23)cc(OC)c1O
Key: -96.2

Exercise: Entry COc1cc(/C=N/n2cnc3oc(-c4ccccc4)cc3c2=N)cc(CN2CCOCC2)c1O please
Key: 8.3

Exercise: Cool, now Cc1ccc(NC(=O)c2cc(/C=C/C(=O)NO)cc(C(F)(F)F)c2)cc1Nc1nccc(-c2cccnc2)n1
Key: -68.2

Exercise: Likewise for NC(=O)c1c(NC(=O)c2cccc(C(F)(F)F)c2F)sc2c1CCC(=O)C2 ?
Key: 19.2

Exercise: Try this compound next: C/C(=C(/C)C1CC1CCN(C(=O)c1ccccn1)S(=O)(=O)c1ccc(C)cc1)C1CCCCC1 (stereo not given)
Key: 97.8

Exercise: Now the same for C#CCOc1ccc(/C=N/Nc2nc(-c3cc4cc(Br)cc(Br)c4oc3=O)cs2)cc1
Key: 102

Exercise: Also, COc1cc(C(=O)c2cc(C(C)=O)c3c4ccccc4ccn23)cc(OC)c1OC please.
Key: 58.4

Measured values drawn from PubChem BioAssay (NCI) for this set.
